System name: Delta-type opioid receptor (Homo sapiens)
Sequence (P41143 whole entry): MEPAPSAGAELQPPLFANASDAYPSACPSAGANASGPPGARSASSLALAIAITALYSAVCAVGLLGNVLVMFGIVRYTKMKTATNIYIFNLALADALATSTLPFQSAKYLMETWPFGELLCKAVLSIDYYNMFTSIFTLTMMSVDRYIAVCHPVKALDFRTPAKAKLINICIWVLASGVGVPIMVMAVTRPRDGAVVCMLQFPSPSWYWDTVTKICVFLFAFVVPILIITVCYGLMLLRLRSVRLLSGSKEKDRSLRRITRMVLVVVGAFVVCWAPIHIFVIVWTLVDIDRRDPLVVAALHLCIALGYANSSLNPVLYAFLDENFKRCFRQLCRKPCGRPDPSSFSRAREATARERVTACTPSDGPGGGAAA
Protocol: Binding affinity to DOR (unknown origin) assessed as inhibition constant
Quantity measured: Ki (nM)
Numbers only; they are read as nM.

Suppose we examine the molecule "N=C(N)NCCCC1=NCCc2cc(O)c(O)cc21" ; what Ki value has been reported?
485

---

System name: Prostaglandin G/H synthase 2 (Homo sapiens)
Sequence (P35354 whole entry): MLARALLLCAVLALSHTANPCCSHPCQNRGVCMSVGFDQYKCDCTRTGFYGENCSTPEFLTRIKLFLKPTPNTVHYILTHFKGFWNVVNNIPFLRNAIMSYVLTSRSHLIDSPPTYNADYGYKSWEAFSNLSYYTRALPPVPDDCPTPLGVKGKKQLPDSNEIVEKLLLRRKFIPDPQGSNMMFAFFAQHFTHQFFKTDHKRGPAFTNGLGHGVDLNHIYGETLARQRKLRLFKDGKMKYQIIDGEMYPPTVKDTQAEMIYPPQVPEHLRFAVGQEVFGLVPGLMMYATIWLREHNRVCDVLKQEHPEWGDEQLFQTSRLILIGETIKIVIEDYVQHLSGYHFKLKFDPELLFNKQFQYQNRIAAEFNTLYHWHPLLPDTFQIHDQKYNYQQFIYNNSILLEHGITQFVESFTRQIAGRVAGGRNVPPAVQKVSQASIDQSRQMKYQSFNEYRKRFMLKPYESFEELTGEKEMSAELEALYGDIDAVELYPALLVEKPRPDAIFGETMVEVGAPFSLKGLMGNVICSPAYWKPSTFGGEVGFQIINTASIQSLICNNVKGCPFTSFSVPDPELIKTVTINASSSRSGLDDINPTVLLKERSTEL
Protocol: Inhibition of COX2 (unknown origin) fluorescence based analysis
Quantity measured: IC50 (µM)
Numbers only; they are read as µM.

Suppose we examine the compound "CC(=O)N/C=C/c1ccc2c(c1)O[C@H](c1ccc(O)c(O)c1)[C@H](NC(C)=O)O2" ; what IC50 value has been reported?
6.43

---

Could you please report measured IC50 for the items listed next?
System name: Glycogen synthase kinase-3 beta (Homo sapiens)
Sequence (P49841 whole entry): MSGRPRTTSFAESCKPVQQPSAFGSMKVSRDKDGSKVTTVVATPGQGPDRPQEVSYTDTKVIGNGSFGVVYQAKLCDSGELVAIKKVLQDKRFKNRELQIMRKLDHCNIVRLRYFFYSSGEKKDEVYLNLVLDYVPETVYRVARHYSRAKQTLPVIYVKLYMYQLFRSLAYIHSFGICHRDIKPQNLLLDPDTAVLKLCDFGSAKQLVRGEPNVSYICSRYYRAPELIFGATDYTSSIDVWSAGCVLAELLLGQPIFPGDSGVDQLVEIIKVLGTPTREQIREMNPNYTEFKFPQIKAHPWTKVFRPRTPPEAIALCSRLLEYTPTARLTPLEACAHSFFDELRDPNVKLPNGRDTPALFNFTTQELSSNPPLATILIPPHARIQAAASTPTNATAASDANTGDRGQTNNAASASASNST
Protocol: Inhibition of N-terminal His6-tagged human recombinant GSK3beta expressed in baculovirus-infected Sf21 cells incubated for 60 mins in presence of ATP by ADP-glo analysis

Suppose we examine the molecule "O=C1C(c2ccc(O)c(O)c2)=C2C(=C(c3ccc(O)c(O)c3)C(=O)N2CCc2ccc(O)c(O)c2)c2cc(O)c(O)cc21" ; what IC50 value has been reported?
< 200 nM

Suppose we examine the molecule "O=C1C(c2ccc(O)c(O)c2)=c2c(c3c(n2CCc2ccc(O)c(O)c2)=C(c2ccc(O)c(O)c2)C(=O)c2cc(O)c(O)cc2-3)-c2cc(O)c(O)cc21" ; what IC50 value has been reported?
< 200 nM

Suppose we examine the molecule "O=C1C(c2ccc(O)c(O)c2)=c2c(c3c(n2CCc2ccc(O)c(O)c2)=C(c2ccc(O)c(O)c2)C(=O)c2c-3ccc(O)c2O)-c2cc(O)c(O)cc21" ; what IC50 value has been reported?
< 500 nM

---

System name: Cyclin-dependent kinase 5/CDK5 activator 1 (Homo sapiens, UniProt Q00535)
Sequence (Q00535 whole entry): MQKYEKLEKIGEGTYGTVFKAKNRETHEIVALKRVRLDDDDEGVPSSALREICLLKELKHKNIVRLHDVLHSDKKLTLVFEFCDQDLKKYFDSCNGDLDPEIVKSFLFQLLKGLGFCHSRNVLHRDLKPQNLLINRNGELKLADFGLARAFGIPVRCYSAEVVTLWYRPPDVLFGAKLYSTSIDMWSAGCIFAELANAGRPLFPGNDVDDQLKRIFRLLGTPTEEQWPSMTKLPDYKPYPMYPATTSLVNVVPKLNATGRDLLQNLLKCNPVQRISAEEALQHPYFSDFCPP
Sequence (Q15078 whole entry, further chain): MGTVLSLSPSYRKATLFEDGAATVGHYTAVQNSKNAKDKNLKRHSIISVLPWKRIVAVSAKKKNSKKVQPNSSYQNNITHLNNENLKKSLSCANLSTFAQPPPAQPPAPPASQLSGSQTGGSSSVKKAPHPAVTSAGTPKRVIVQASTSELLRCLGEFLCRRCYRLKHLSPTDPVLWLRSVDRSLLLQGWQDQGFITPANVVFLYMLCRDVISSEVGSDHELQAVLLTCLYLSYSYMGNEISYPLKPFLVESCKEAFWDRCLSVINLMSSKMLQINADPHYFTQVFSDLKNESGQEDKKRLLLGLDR
Protocol: Inhibition of N-terminal full length human recombinant CDK5/p25 expressed in baculovirus-infected Sf21 cells incubated for 60 mins in presence of ATP by kinase-glo luminescent assay
pIC50: −log10 of the molar value.
Quantity measured: pIC50

Suppose we examine the compound "O=C1C(c2ccc(O)c(O)c2)=c2c(c3c(n2CCc2ccc(O)c(O)c2)=C(c2ccc(O)c(O)c2)C(=O)c2c-3ccc(O)c2O)-c2cc(O)c(O)cc21" ; what pIC50 value has been reported?
> 5.62

Suppose we examine the compound "O=C1C(c2ccc(O)c(O)c2)=c2c(c3c(n2CCc2ccc(O)c(O)c2)=C(c2ccc(O)c(O)c2)C(=O)c2cc(O)c(O)cc2-3)-c2cc(O)c(O)cc21" ; what pIC50 value has been reported?
> 6.30

Suppose we examine the compound "O=C1C(c2ccc(O)c(O)c2)=C2C(=C(c3ccc(O)c(O)c3)C(=O)N2CCc2ccc(O)c(O)c2)c2cc(O)c(O)cc21" ; what pIC50 value has been reported?
> 5.82
